Listed next: entries and their corresponding Z score Rep1.
Molecular target: SaCas9 (Staphylococcus aureus)
Sequence (J7RUA5 1-1053): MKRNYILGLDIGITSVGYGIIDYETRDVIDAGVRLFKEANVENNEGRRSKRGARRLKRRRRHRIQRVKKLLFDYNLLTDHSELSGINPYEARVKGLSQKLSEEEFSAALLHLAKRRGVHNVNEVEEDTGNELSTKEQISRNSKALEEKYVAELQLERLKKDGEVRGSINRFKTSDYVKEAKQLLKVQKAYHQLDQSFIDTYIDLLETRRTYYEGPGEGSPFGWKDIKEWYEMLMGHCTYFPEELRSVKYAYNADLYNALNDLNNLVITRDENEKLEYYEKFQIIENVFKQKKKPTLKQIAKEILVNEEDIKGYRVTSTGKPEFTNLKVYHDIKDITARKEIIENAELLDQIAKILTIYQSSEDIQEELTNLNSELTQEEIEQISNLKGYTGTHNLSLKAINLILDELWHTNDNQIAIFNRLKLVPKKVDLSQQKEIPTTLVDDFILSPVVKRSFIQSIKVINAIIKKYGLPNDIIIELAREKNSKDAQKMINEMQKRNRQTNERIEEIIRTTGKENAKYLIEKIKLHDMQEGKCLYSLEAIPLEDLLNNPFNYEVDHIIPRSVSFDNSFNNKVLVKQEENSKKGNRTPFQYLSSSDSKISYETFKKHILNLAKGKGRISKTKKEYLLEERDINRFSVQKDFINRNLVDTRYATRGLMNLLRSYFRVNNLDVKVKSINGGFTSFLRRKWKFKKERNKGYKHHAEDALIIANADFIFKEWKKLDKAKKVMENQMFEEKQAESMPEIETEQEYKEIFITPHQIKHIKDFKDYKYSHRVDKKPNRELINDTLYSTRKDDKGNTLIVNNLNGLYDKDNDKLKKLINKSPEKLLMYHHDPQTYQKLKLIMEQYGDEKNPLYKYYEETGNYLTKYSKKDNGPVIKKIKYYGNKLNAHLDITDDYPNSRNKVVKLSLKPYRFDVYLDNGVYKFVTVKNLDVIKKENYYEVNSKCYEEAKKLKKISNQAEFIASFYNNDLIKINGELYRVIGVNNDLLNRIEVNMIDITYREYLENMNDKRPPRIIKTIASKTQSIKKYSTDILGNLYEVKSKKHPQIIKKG
Assay: eGFP secondary assay, SaCas9
Format: cell-based
Conditions: replicate 1, Zscore>3 selected as hit
// print number alone

// lookup Z score Rep1 for CNC(=O)c1sc(=S)n2c1[nH]c(=O)c1cc(Br)ccc12 [F083-0285]
3.635

// lookup Z score Rep1 for Cc1ccc(-n2ncc(C(=O)Nc3ccc(Br)cc3)c2C2CCNCC2)cc1 [Compound E922-0258]
7.494

More entries:
// lookup Z score Rep1 for Fc1cccc(-c2nnc3sc(-c4c[nH]c5ccccc45)nn23)c1 [Compound D727-0772]
6.397

// lookup Z score Rep1 for CCOc1ccc(NC(=O)c2cc(=O)c3cc(CC)ccc3o2)c2cccnc12 [Compound D656-0061]
1.153

// lookup Z score Rep1 for Cc1nc2nc(N(CCOc3ccccc3)S(=O)(=O)c3ccccc3)nn2c(C)c1Cl [D513-3628]
5.201

// lookup Z score Rep1 for Cc1cccc(NC(=O)c2cc3c(=O)n4ccccc4nc3s2)c1 [C243-0026]
3.063

// lookup Z score Rep1 for COc1ccc(N2C(=O)c3cc4ccccc4n3CC2(C)C(=O)NC2CCCCC2)c(OC)c1 (stereo not drawn) [E234-0018]
4.570

// lookup Z score Rep1 for CCCN(CCC)C(=O)C1CCCN(c2ccc(-c3ccccc3)nn2)C1 (stereo not drawn) [F305-0061]
4.673

// lookup Z score Rep1 for CCCCN(CC)C(=O)C1CCCN(c2ccc(-c3ccccc3)nn2)C1 (stereo not drawn) [Compound F305-0030]
5.044
